Attribution: paper PMC5540273

Test system: RSK1(Kin.Dom.2-C-terminal)
Construct: gene RPS6KA1
Details: concentration: 1 μM,replicates: in singlicate; n = 1;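 also: KINOMEscan kinase panel screen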
Collected %Inh values appear next to each entry.
Output should be the measured figure followed by the unit it is expressed in.

Check out these entries, answers already filled in.
>>> print(df.to_string())
                                smiles_code  readout_value
0  C[C@@H](Oc1cc(-n2cnc3cc(-c4cnn(C)c4)ccc32)sc1C(N)=O)c1ccccc1Cl             0%
1  C[C@@H](Oc1cc(-n2cnc3cc(-c4ccncc4)ccc32)sc1C(N)=O)c1ccccc1Cl             7%
2  CN1CCN(CCNc2nc3cc(Oc4ccc(NC(=O)Nc5cc(C(F)(F)F)ccc5F)cc4)ccc3[nH]2)CC1.Cl.Cl            28%

Next, consider the following compound.
Return %Inh measured with RSK1(Kin.Dom.2-C-terminal) given this compound: "NC(=O)Nc1sc(-c2ccc(F)cc2)cc1C(N)=O"
33%

====

System: PRKD2
Details: concentration: 1 μM,replicates: in singlicate; n = 1
Collected %Inh values appear next to each entry.
Answer with a number only, understood to be in %.

In [3]: df
Out[3]:
                                   molecule  measurement_type  readout_value
0  Cn1ccc2ncnc(Oc3ccc(NC(=O)Nc4cccc(C(F)(F)F)c4)c(Cl)c3)c21              %Inh             15

Query (molecule): "COc1cccc(OC)c1C(=O)Nc1cccc(-c2nn3ccccc3c2-c2ccnc(Nc3cccc(F)c3)n2)c1" ; field requested: %Inh
1

Query (molecule): COc1cc(Nc2nccc(N3CCC(NC(=O)c4cccc(C#N)c4)C3)n2)cc(OC)c1OC (centres unmarked) ; field requested: %Inh
0

Query (molecule): CS(=O)c1ccc(-c2coc3ccc(-c4n[nH]c(=O)o4)cc23)cc1 (centres unmarked) ; field requested: %Inh
4

Query (molecule): "Cc1ccc(C(=O)Nc2ccc(Oc3ccc4nc(NC(=O)C5CC5)cn4c3)c(F)c2)c(=O)n1-c1ccccc1" ; field requested: %Inh
0

Query (molecule): "CCN1CCN(CCCC(=O)Nc2n[nH]c3nc(-c4ccc(O)cc4)c(Br)cc23)CC1" ; field requested: %Inh
0

====

Tested on: MELK
Conditions: concentration: 1 μM,replicates: in singlicate; n = 1
// classify: if (%Inh < 7%) YES else NO

For orientation, consider the following solved cases.
In [3]: df
Out[3]:
                                smiles_code  group
0  Cc1ccc(C(=O)Nc2ccc(Oc3ccc4nc(NC(=O)C5CC5)cn4c3)c(F)c2)c(=O)n1-c1ccccc1     NO
1  CC(=O)Nc1nc2cnc(Nc3cc(NC(=O)c4cccc(CC(C)(C)C#N)c4)ccc3C)nc2s1     NO
2  C[C@@H](Oc1cc(-n2cnc3cc(-c4ccncc4)ccc32)sc1C(N)=O)c1ccccc1Cl    YES

Does "O=C(Nc1cccc(C(F)(F)F)c1)c1cccc(Oc2ccc3nccn3n2)c1" have %Inh strictly under 7%?
YES

Does "O=C(Nc1ccccc1)c1cccc(Oc2ccc3nccn3n2)c1" have %Inh strictly under 7%?
NO

Does "CN(c1cccc(CNc2nc(Nc3ccc4c(c3)CC(=O)N4)ncc2C(F)(F)F)c1)S(C)(=O)=O" have %Inh strictly under 7%?
NO

====

Test system: EPHA5
Details: concentration: 1 μM,replicates: in singlicate; n = 1
Collected %Inh values appear next to each entry.

In [3]: df
Out[3]:
                                   molecule  assay_system  measurement_type  readout_value
0  CN1CCN(CCNc2nc3cc(Oc4ccc(NC(=O)Nc5cc(C(F)(F)F)ccc5F)cc4)ccc3[nH]2)CC1.Cl.Cl         EPHA5              %Inh             0%
1  COc1cc2nccc(Nc3ccc(Oc4ccccc4)cc3)c2cc1OC.Cl         EPHA5              %Inh             0%
2  CN(c1cccc(CNc2nc(Nc3ccc4c(c3)CC(=O)N4)ncc2C(F)(F)F)c1)S(C)(=O)=O         EPHA5              %Inh             0%
3  FC(F)(F)c1cc(Br)cc(Nc2nccc(-c3cnn4ncccc34)n2)c1         EPHA5              %Inh            26%
4  C[C@@H]1CCN(C(=O)N2CCCC2)C[C@@H]1N(C)c1ncnc2[nH]ccc12         EPHA5              %Inh             8%

Return %Inh measured with EPHA5 given this molecule: "C[C@@H](Oc1cc(-n2cnc3cc(-c4cnn(C)c4)ccc32)sc1C(N)=O)c1ccccc1Cl"
0%

Return %Inh measured with EPHA5 given this molecule: CS(=O)c1ccc(-c2coc3ccc(-c4n[nH]c(=O)o4)cc23)cc1 (centres unmarked)
0%

Return %Inh measured with EPHA5 given this molecule: "CN(c1ccccc1CNc1nc(Nc2ccc3c(c2)CC(=O)N3)ncc1C(F)(F)F)S(C)(=O)=O"
6%

====

Collected %Inh values appear next to each entry.
Test system: TLK1
Settings: concentration: 1 μM,replicates: in singlicate; n = 1
Answer with a number only, understood to be in %.

In [3]: df
Out[3]:
                                   compound  readout_value
0  COc1cc2nccc(Nc3ccc(Oc4ccccc4)cc3)c2cc1OC.Cl              0
1  Cn1ccc2ncnc(Oc3ccc(NC(=O)Nc4cccc(C(F)(F)F)c4)c(Cl)c3)c21             74
2  Cc1ccc2c(-c3ccnc(Nc4ccc(C(F)(F)F)cc4)n3)cnn2n1             18
3  C[C@@H](Oc1cc(-n2cnc3ccc(-c4ccncc4)cc32)sc1C(N)=O)c1ccccc1Cl              0
4  CNC(=O)c1ccccc1Nc1nc(Nc2cccc(CS(C)(=O)=O)c2)ncc1C.O=CO             22
5  CS(=O)(=O)c1cccc(CNc2nc(Nc3ccc4c(c3)[C@@H]3C[C@@H]4CNC3=O)ncc2C(F)(F)F)c1             18

Next, consider the following compound.
Query (compound): "CCn1c(-c2nonc2N)nc2cncc(Br)c21" ; field requested: %Inh
9

====

System: RSK4(Kin.Dom.2-C-terminal)
Construct: gene RPS6KA6
Conditions: concentration: 1 μM,replicates: in singlicate; n = 1
Collected %Inh values appear next to each entry.
Answer with a number only, understood to be in %.

>>> print(df.to_string())
                                   compound                assay_system  readout_value
0  O=C(NCC1CC1)c1ccc(-c2cc(C(=O)NC3CC3)ccc2F)cc1 [GW810445]  RSK4(Kin.Dom.2-C-terminal)              0

Query (compound): Cl.Nc1n[nH]c2cc(-c3ccccn3)ccc12 [GSK2189892] ; field requested: %Inh
0

Query (compound): COc1cc2nccc(Nc3ccc(Oc4ccccc4)cc3)c2cc1OC.Cl [GI261656] ; field requested: %Inh
9

Query (compound): COc1cccc(C2=C(Nc3cccc(Cl)c3)C(=O)NC2=O)c1 [SB-341556] ; field requested: %Inh
76

====

Collected %Inh values appear next to each entry.
Test system: CSNK2A2
Conditions: concentration: 1 μM,replicates: in singlicate; n = 1
Answer with a number only, understood to be in %.

                                smiles_code  u  readout_value
0  CCN1CCN(CCCC(=O)Nc2n[nH]c3nc(-c4ccc(O)cc4)c(Br)cc23)CC1  %              0
1  Cn1ccc2ncnc(Oc3ccc(NC(=O)Nc4ccnc(C(F)(F)F)c4)c(Cl)c3)c21  %             10

Query (molecule): "CN(c1cccc(CNc2nc(Nc3ccc4c(c3)CC(=O)N4)ncc2C(F)(F)F)c1)S(C)(=O)=O" ; field requested: %Inh
44

Query (molecule): "Cl.c1ccc(Oc2ccc(Nc3ccnc4cc(-c5ccc(CN6CCNCC6)o5)ccc34)cc2)nc1" ; field requested: %Inh
3

Query (molecule): "Cl.Cl.NC[C@H](CC1CCCCC1)NC(=O)c1ccc(-c2ccnc3[nH]ccc23)s1" ; field requested: %Inh
0

Query (molecule): "CN(c1ccccc1CNc1nc(Nc2ccc3c(c2)CC(=O)N3)ncc1C(F)(F)F)S(C)(=O)=O" ; field requested: %Inh
92.7

Query (molecule): "Cc1ccn2nc(-c3ccc(F)cc3)c(-c3ccncc3)c2c1.Cl" ; field requested: %Inh
14

Query (molecule): "CCCC(=O)Nc1n[nH]c2ncccc12" ; field requested: %Inh
0
